target: PAR4 (Homo sapiens); assay: Human platelet activity assay, flow cytometry, γ-thrombin activation; type: cell-based; design: endogenous in cells; host or cells: washed human platelets from healthy volunteers; settings: human platelets, 100 nM γ-thrombin, GPIIbIIIa activation (PAC1); read-out: Human Platelets PAC1 IC50
Sequence (Q96RI0 18-385): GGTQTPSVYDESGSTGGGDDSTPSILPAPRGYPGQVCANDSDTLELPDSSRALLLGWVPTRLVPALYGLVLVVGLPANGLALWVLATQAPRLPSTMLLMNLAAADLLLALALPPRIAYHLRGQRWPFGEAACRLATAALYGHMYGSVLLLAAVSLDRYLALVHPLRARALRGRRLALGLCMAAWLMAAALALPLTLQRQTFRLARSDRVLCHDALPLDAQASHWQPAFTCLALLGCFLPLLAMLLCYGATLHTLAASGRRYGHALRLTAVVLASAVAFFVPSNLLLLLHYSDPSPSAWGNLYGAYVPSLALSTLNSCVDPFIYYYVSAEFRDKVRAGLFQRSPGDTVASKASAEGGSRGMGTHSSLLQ
Exercise: for every item that follows, state its recorded pIC50.
Note: pIC50 values are expressed as the negative base-10 logarithm of concentration in M.

Exercise: What does the data say about its pIC50? Entry: Cn1nc(C(=O)Nc2n[nH]c(-c3ccccc3Cl)n2)cc1C1CC1 [Compound 14]
Solution: 6.08

Exercise: Field request: pIC50 | item: O=C(Nc1n[nH]c(C2CC2)n1)c1nn(-c2ccccc2)c2c1CCC2 [Compound 24]
Solution: 6.41

Exercise: // pIC50 lookup, key: CCc1cc(C(=O)Nc2n[nH]c(-c3c(F)cccc3F)n2)nn1C [Compound 15]
Solution: 6.31

Exercise: Which pIC50 reading was recorded for the compound Cn1nc(C(=O)Nc2n[nH]c(-c3ccc(C#N)cc3)n2)cc1C1CC1 [Compound 16] ?
Solution: 6.34

Exercise: Data request, read-out pIC50, for Cn1nc(C(=O)Nc2n[nH]c(-c3ccccc3F)n2)cc1C1CC1 [Compound 13]
Solution: 6.23

Exercise: Param item = Cc1cc(C(=O)Nc2n[nH]c(OC(F)F)n2)nn1-c1ccccc1 [Compound 9] ; retrieve measured pIC50.
Solution: 6.23

Exercise: Would you mind telling me what pIC50 value was observed for Cc1nc(NC(=O)c2cc(-c3ccccc3)[nH]n2)n[nH]1 [Compound 8] ?
Solution: 5.55

Exercise: Give the measured pIC50 of CC(C)c1cc(C(=O)Nc2n[nH]c(-c3c(F)cccc3F)n2)nn1C [Compound 11] .
Solution: 6.22

Exercise: Need pIC50, item COc1cccc(-c2nc(NC(=O)c3nn(-c4ccccc4)c4c3CCCC4)n[nH]2)c1 [Compound 32]
Solution: 6.92

* * *

experiment: Plasma protein binding, human plasma; type: in vitro ADME; details: pH 7.4, read-out: human PPB fu
Tag: met if measured fraction unbound at 4 h is not below 0.01, not met if it is.

Exercise: Hello, I need to know if O=C(Nc1n[nH]c(-c2cccc(OC(F)F)c2)n1)c1nn(-c2ccccc2)c2c1CCCC2 [Compound 33] has measured fraction unbound at 4 h not below 0.01. Thanks!
Solution: not met

Exercise: Check the entry Cc1cc(C(=O)Nc2n[nH]c(OC(F)F)n2)nn1-c1ccccc1 [Compound 9] : does fraction unbound at 4 h equal or exceed 0.01?
Solution: met

Exercise: API: above_or_equal(metric=fraction unbound at 4 h, cutoff=0.01) for item O=C(Nc1n[nH]c(-c2ccc(F)cc2F)n1)c1nn(-c2ccccc2)c2c1CCCC2 [Compound 31]
Solution: met

Exercise: fraction unbound at 4 h >= 0.01 for COc1cccc(-c2nc(NC(=O)c3nn(-c4ccccc4)c4c3CCCC4)n[nH]2)c1 [Compound 32] ?
Solution: not met

Exercise: Record Cn1nc(C(=O)Nc2n[nH]c(-c3c(F)cccc3F)n2)cc1C1CC1 [Compound 12] ; criterion: fraction unbound at 4 h no lower than 0.01. Met?
Solution: met

Exercise: Would you say O=C(Nc1nc[nH]n1)c1nn(-c2ccccc2)c2c1CCC2 [Compound 17] shows fraction unbound at 4 h at minimum 0.01?
Solution: met
